# system_tested: human GR (Homo sapiens, UniProt P04150)
# protocol: Transrepression Assay (GITAR), TNFα-β-lactamase reporter in U937 cells
# Assay type: cell-based
# Set-up: U937 cells contain an endogenous glucocorticoid receptor (GR); endogenous in cells; host or cells: U937 cells stably transfected with the TNF-alpha promoter/beta-lactamase reporter
# condition_context: U937 cells; inflection point; read-out: Transrepression U937 Cells GITAR IP
measure_name: EC50 (nM)

Before answering, review these 2 worked examples.
molecule="C[C@]12Cc3cnn(-c4ccc(F)cc4)c3C=C1CC[C@@H]2CN(CCc1ccccn1)S(=O)(=O)Cc1ccccc1C(F)(F)F [Example 153]" system_tested="human GR (Homo sapiens, UniProt P04150)" result_units=nM obs_value=263
molecule="COCCN(C[C@H]1CCC2=Cc3c(cnn3-c3ccc(F)cc3)C[C@@]21C)S(=O)(=O)c1c(C)noc1C [Example 173]" system_tested="human GR (Homo sapiens, UniProt P04150)" result_units=nM obs_value=520

[A] Cn1nc(C(F)(F)F)cc1-c1ccc(S(=O)(=O)N(CC#N)C[C@H]2CCC3=Cc4c(cnn4-c4ccc(F)cc4)C[C@@]32C)s1 [Example 35]
[B] C[C@]12Cc3cnn(-c4ccc(F)cc4)c3C=C1CC[C@@H]2CN(CCO)S(=O)(=O)c1ccccc1F [Example 17]
(Q) // select label with min value of measured EC50 from [ A , B ] // respond with label for picked entry
(A) B

###

# system_tested: human GR (Homo sapiens)
# Sequence (P04150 1-777): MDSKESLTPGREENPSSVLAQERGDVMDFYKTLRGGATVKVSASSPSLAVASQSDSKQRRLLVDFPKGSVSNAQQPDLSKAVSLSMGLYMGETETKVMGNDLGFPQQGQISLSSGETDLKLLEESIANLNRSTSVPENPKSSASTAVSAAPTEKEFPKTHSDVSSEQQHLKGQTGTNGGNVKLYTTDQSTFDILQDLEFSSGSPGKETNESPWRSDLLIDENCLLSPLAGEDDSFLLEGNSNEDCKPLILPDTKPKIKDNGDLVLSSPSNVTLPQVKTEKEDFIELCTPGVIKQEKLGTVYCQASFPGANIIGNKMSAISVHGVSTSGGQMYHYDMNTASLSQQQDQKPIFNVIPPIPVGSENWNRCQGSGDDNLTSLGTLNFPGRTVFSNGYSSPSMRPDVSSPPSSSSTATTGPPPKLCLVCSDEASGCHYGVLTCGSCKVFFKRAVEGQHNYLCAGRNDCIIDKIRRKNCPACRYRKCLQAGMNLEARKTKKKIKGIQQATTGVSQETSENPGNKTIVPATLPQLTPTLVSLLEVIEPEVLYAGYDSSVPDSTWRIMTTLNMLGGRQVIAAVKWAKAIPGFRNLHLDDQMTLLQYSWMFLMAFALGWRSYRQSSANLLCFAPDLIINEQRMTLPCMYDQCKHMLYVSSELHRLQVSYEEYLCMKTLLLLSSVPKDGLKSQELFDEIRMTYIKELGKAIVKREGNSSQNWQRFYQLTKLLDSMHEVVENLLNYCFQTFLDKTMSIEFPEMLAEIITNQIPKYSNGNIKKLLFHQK
# protocol: Transrepression Assay (GITAR), TNFα-β-lactamase reporter in U937 cells
# Format: cell-based
# Set-up: U937 cells contain an endogenous glucocorticoid receptor (GR); endogenous in cells; host or cells: U937 cells stably transfected with the TNF-alpha promoter/beta-lactamase reporter
# condition_context: U-937, U937 cells; maximum activity; read-out: Transrepression U937 Cells GITAR Emax
measure_name: Emax (%)

Before answering, review these 2 worked examples.
molecule="Cc1noc(C)c1S(=O)(=O)N(C)C[C@H]1CCC2=Cc3c(cnn3-c3ccc(F)cc3)C[C@@]21C [Example 176]" result_units=% obs_value=74.5
molecule="C[C@]12Cc3cnn(-c4ccc(F)cc4)c3C=C1CC[C@@H]2CN(CCO)S(=O)(=O)Cc1ccccc1 [Example 75]" result_units=% obs_value=28.8

[A] C[C@]12Cc3cnn(-c4ccc(F)cc4)c3C=C1CC[C@@H]2CN(CC(O)c1cccnc1)S(=O)(=O)CC(F)(F)F (stereo partly shown) [Example 143]
[B] C[C@]12Cc3cnn(-c4ccc(F)cc4)c3C=C1CC[C@@H]2CN(CCO)S(=O)(=O)c1ccc(Oc2cccc(Cl)c2C#N)cc1 [Example 69]
(Q) // pick larger Emax from pair: A vs B // respond with label for picked entry
(A) A

###

# system_tested: human GR (Homo sapiens)
# protocol: Trans-Activation Modulation of Glucocorticoid Receptor (GRAMMER), MMTV-LUC reporter, agonist mode
# Type: cell-based
# Design: endogenous in cells
# condition_context: A549 cells; inflection point; read-out: Transactivation A549 Cells GRAMMER IP
measure_name: EC50 (nM)

Before answering, review these 5 worked examples.
compound="CCCCS(=O)(=O)N(CCc1ccccc1F)C[C@H]1CCC2=Cc3c(cnn3-c3ccc(F)cc3)C[C@@]21C [Example 102]" system_tested="human GR (Homo sapiens)" measure_name=EC50 obs_value=203
compound="COCCN(C[C@H]1CCC2=Cc3c(cnn3-c3ccc(F)cc3)C[C@@]21C)S(=O)(=O)CCN1C(=O)c2ccccc2C1=O [Example 118]" system_tested="human GR (Homo sapiens)" measure_name=EC50 obs_value=853
compound="COc1ccccc1CCN(C[C@H]1CCC2=Cc3c(cnn3-c3ccc(F)cc3)C[C@@]21C)S(=O)(=O)c1ccccc1F [Example 90]" system_tested="human GR (Homo sapiens)" measure_name=EC50 obs_value=354
compound="C[C@H](O)CN(C[C@H]1CCC2=Cc3c(cnn3-c3ccc(F)cc3)C[C@@]21C)S(=O)(=O)c1ccc(F)c(Cl)c1 [Example 112]" system_tested="human GR (Homo sapiens)" measure_name=EC50 obs_value=423
compound="COCCN(C[C@H]1CCC2=Cc3c(cnn3-c3ccc(F)cc3)C[C@@]21C)S(=O)(=O)c1c(C)noc1C [Example 173]" system_tested="human GR (Homo sapiens)" measure_name=EC50 obs_value=364

[I] C[C@]12Cc3cnn(-c4ccc(F)cc4)c3C=C1CC[C@@H]2CN(CC#N)S(=O)(=O)c1cc(Cl)c(Cl)s1 [Example 24]
[II] C[C@]12Cc3cnn(-c4ccc(F)cc4)c3C=C1CC[C@@H]2CN(CC#N)S(=O)(=O)c1ccccc1F [Example 43]
(Q) // pick larger EC50 from pair: I vs II // respond with label for picked entry
(A) I
(I: 845 nM, II: 470 nM)

###

# system_tested: human GR (Homo sapiens)
# protocol: Transrepression Assay (GITAR), TNFα-β-lactamase reporter in U937 cells
# Format: cell-based
# Set-up: U937 cells contain an endogenous glucocorticoid receptor (GR); endogenous in cells; host or cells: U937 cells stably transfected with the TNF-alpha promoter/beta-lactamase reporter
# condition_context: U937 cells; inflection point; read-out: Transrepression U937 Cells GITAR IP
measure_name: EC50 (nM)

compound=Cc1oncc1S(=O)(=O)N(CC#N)C[C@H]1CCC2=Cc3c(cnn3-c3ccc(F)cc3)C[C@@]21C measure_name=EC50 obs_value=2250

[P] Cn1cc(S(=O)(=O)N(CCc2ccccc2F)C[C@H]2CCC3=Cc4c(cnn4-c4ccc(F)cc4)C[C@@]32C)c(C(F)(F)F)n1
[Q] C[C@]12Cc3cnn(-c4ccc(F)cc4)c3C=C1CC[C@@H]2CN(CCO)S(=O)(=O)c1ccc(Oc2ccccc2)cc1
(Q) // select label with min value of measured EC50 from [ P , Q ] // respond with label for picked entry
(A) P
(P: 64.3 nM, Q: 1950 nM)

[I] C[C@]12Cc3cnn(-c4ccc(F)cc4)c3C=C1CC[C@@H]2CN(CCO)S(=O)(=O)c1cccc(C#N)c1
[II] C[C@]12Cc3cnn(-c4ccccc4)c3C=C1CC[C@@H]2CN(CCc1ccccn1)S(=O)(=O)CC(F)(F)F
(Q) // pick larger EC50 from pair: I vs II // respond with label for picked entry
(A) I

###

# system_tested: human GR (Homo sapiens, UniProt P04150)
# protocol: Transrepression Assay (GITAR), TNFα-β-lactamase reporter in U937 cells
# Format: cell-based
# Parameters: U937 cells contain an endogenous glucocorticoid receptor (GR); endogenous in cells; host or cells: U937 cells stably transfected with the TNF-alpha promoter/beta-lactamase reporter
# condition_context: U937 cells; inflection point; read-out: Transrepression U937 Cells GITAR IP
# Excerpt: This assay assesses the ability of test compounds to control transcription from the TNFα-β-lactamase reporter gene in U937 cells, a human myelomonocytic leukemia cell line that naturally expresses the human GR. The assay measures compound dependent-repression of the TNFa promoter linked to a reporter gene. The human U937 cells that had been stablely transfected with the TNF-α promoter driving β-lactamase are used for this assay. U937 cells contain an endogenous glucocorticoid receptor (GR). […]
measure_name: EC50 (nM)

Before answering, review these 2 worked examples.
molecule="Cn1cc(S(=O)(=O)N(CC2CCCO2)C[C@H]2CCC3=Cc4c(cnn4-c4ccc(F)cc4)C[C@@]32C)c(C(F)(F)F)n1 (stereo partly shown)" measure_name=EC50 result_units=nM obs_value=822
molecule=CCCCCCCCS(=O)(=O)N(CCc1ccccc1F)C[C@H]1CCC2=Cc3c(cnn3-c3ccc(F)cc3)C[C@@]21C measure_name=EC50 result_units=nM obs_value=153

[a] C[C@]12Cc3cnn(-c4ccc(F)cc4)c3C=C1CC[C@@H]2CN(CC1CCCO1)S(=O)(=O)c1ccc(C(N)=O)cc1 (stereo partly shown)
[b] Cc1noc(C)c1S(=O)(=O)N(CCO)C[C@H]1CCC2=Cc3c(cnn3-c3ccc(F)cc3)C[C@@]21C
(Q) // select label with min value of measured EC50 from [ a , b ] // respond with label for picked entry
(A) b
(b: 302 nM, a: 441 nM)

[a] Cc1noc(C)c1S(=O)(=O)N(C)C[C@H]1CCC2=Cc3c(cnn3-c3ccc(F)cc3)C[C@@]21C
[b] COC(=O)c1cc(Cl)ccc1CCN(C[C@H]1CCC2=Cc3c(cnn3-c3ccc(F)cc3)C[C@@]21C)S(=O)(=O)CC(F)(F)F
(Q) // select label with min value of measured EC50 from [ a , b ] // respond with label for picked entry
(A) a

All figures here come from patent US8299048B2.
